- test method notes: clinical
- condition notes: in vivo, po, 30 mg, AUCinf, mean, conventional formulation, 30 mg single dose, fasted
test readout: AUC(0-inf) (ng·h/mL)

mol smiles	test readout	experimental result
COC(=O)N[C@H](C(=O)N1CC2(CC2)C[C@H]1c1ncc(-c2ccc3c(c2)C(F)(F)c2cc(-c4ccc5nc([C@@H]6[C@H]7CC[C@H](C7)N6C(=O)[C@@H](NC(=O)OC)C(C)C)[nH]c5c4)ccc2-3)[nH]1)C(C)C	AUC(0-inf)	2420

---

- test method notes: clinical
- condition notes: in vivo, 30 mg, t1/2, conventional formulation, 30 mg single dose, fed (high-fat meal); median
test readout: half-life (h)

mol smiles	unit of measurement	experimental result
COC(=O)N[C@H](C(=O)N1CC2(CC2)C[C@H]1c1ncc(-c2ccc3c(c2)C(F)(F)c2cc(-c4ccc5nc([C@@H]6[C@H]7CC[C@H](C7)N6C(=O)[C@@H](NC(=O)OC)C(C)C)[nH]c5c4)ccc2-3)[nH]1)C(C)C	h	36.8

---

- test method notes: clinical
- condition notes: in vivo, po, 30 mg, AUClast, mean, conventional formulation, 30 mg single dose, fasted

mol smiles	AUC(0-t) / ng·h/mL
COC(=O)N[C@H](C(=O)N1CC2(CC2)C[C@H]1c1ncc(-c2ccc3c(c2)C(F)(F)c2cc(-c4ccc5nc([C@@H]6[C@H]7CC[C@H](C7)N6C(=O)[C@@H](NC(=O)OC)C(C)C)[nH]c5c4)ccc2-3)[nH]1)C(C)C	1990

---

- test method notes: Pharmacokinetics after oral administration of tablets in beagle dogs
- Format: in vivo
- condition notes: dog, in vivo, pentagastrin pretreatment, read-out: Cmax, mean (RSD)

compound	Cmax [nM]
COC(=O)N[C@H](C(=O)N1CC2(CC2)C[C@H]1c1ncc(-c2ccc3c(c2)C(F)(F)c2cc(-c4ccc5nc([C@@H]6[C@H]7CC[C@H](C7)N6C(=O)[C@@H](NC(=O)OC)C(C)C)[nH]c5c4)ccc2-3)[nH]1)C(C)C [Amorphous Free base]	743

---

- test method notes: clinical
- condition notes: in vivo, po, 30 mg, Vz/F, mean, conventional formulation, 30 mg single dose, fasted

molecule	Vd/F, L
COC(=O)N[C@H](C(=O)N1CC2(CC2)C[C@H]1c1ncc(-c2ccc3c(c2)C(F)(F)c2cc(-c4ccc5nc([C@@H]6[C@H]7CC[C@H](C7)N6C(=O)[C@@H](NC(=O)OC)C(C)C)[nH]c5c4)ccc2-3)[nH]1)C(C)C [Ledipasvir]	877

---

- test method notes: clinical
- condition notes: in vivo, po, 30 mg, Vz/F, mean, conventional formulation, 30 mg single dose, fed (high-fat meal)

compound	unit of measurement	Vd/F
COC(=O)N[C@H](C(=O)N1CC2(CC2)C[C@H]1c1ncc(-c2ccc3c(c2)C(F)(F)c2cc(-c4ccc5nc([C@@H]6[C@H]7CC[C@H](C7)N6C(=O)[C@@H](NC(=O)OC)C(C)C)[nH]c5c4)ccc2-3)[nH]1)C(C)C [Ledipasvir]	L	1390

---

- test method notes: Pharmacokinetics after oral administration of tablets in beagle dogs
- Format: in vivo
- Design: dose or concentration left out as unconfirmed
- condition notes: dog, in vivo, pentagastrin pretreatment, read-out: AUC0-24, mean (RSD)
- Protocol: A series of in vivo experiments were conducted to evaluate the potential benefit of the solid dispersion approach relative to conventional formulations, as well as to optimize the solid dispersion by identifying the most beneficial polymer type and relative polymer concentration within the dispersion. Pentagastrin is a synthetic polypeptide that stimulates the secretion of gastric acid, pepsin, and intrinsic factor. […]

compound	AUC(0-t) (µM·h)
COC(=O)N[C@H](C(=O)N1CC2(CC2)C[C@H]1c1ncc(-c2ccc3c(c2)C(F)(F)c2cc(-c4ccc5nc([C@@H]6[C@H]7CC[C@H](C7)N6C(=O)[C@@H](NC(=O)OC)C(C)C)[nH]c5c4)ccc2-3)[nH]1)C(C)C [Amorphous Free base]	8.03
